Hey, just so you know, these numbers are from patent US20230381229A1.

# tgt: T1, TIGIT (human)
# T1 chain: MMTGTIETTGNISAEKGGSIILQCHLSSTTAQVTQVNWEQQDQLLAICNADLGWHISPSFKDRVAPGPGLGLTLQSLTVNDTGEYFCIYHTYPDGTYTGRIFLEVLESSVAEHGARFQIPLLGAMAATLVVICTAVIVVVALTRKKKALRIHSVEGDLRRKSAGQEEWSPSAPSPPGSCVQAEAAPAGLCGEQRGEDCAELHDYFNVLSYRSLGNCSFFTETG
# method notes: cell-based or functional assay
Recorded measurements of IL-2 luciferase reporter, Normalized Fold Change from CD155-ECD, proteins at 50 nM, one per entry
Quick reminder: number only, in fold, skip the unit.

[
  {
    "binder": "variant CD155 IgV-Fc P18T, M36T, S65A, S67E, L79Q, A81T, F91S, G111R (Fc fusion) WPPPGTGDVVVQAPTQVTGFLGDSVTLPCYLQVPNTEVTHVSQLTWARHGESGSMAVFHQTQGPAYEESKRLEFVAARQGTELRNASLRMSGLRVEDEGNYTCLFVTFPQRSRSVDIWLRVLGSGGGGSEPKSSDKTHTCPPCPAPEAEGAPSVFLFPPKPKDTLMISRTPEVTCVVVDVSHEDPEVKFNWYVDGVEVHNAKTKPREEQYNSTYRVVSVLTVLHQDWLNGKEYKCKVSNKALPAPIEKTISKAKGQPREPQVYTLPPSRDELTKNQVSLTCLVKGFYPSDIAVEWESNGQPENNYKTTPPVLDSDGSFFLYSKLTVDKSRWQQGNVFSCSVMHEALHNHYTQKSLSLSPGK",
    "test value": -0.9
  }
]

Then this binder:
Task: Need IL-2 luciferase reporter, Normalized Fold Change from CD155-ECD, proteins at 50 nM, item variant CD155 IgV-Fc P18C, T26M, L44V, M55I, Q62K, L79P, F91S, L104M, T107M (Fc fusion) WPPPGTGDVVVQAPTQVCGFLGDSVMLPCYLQVPNMEVTHVSQVTWARHGESGSIAVFHQTKGPSYSESKRLEFVAARPGAELRNASLRMSGLRVEDEGNYTCMFVMFPQGSRSVDIWLRVLGSGGGGSEPKSSDKTHTCPPCPAPEAEGAPSVFLFPPKPKDTLMISRTPEVTCVVVDVSHEDPEVKFNWYVDGVEVHNAKTKPREEQYNSTYRVVSVLTVLHQDWLNGKEYKCKVSNKALPAPIEKTISKAKGQPREPQVYTLPPSRDELTKNQVSLTCLVKGFYPSDIAVEWESNGQPENNYKTTPPVLDSDGSFFLYSKLTVDKSRWQQGNVFSCSVMHEALHNHYTQKSLSLSPGK
Result: 1.6
